tested on: Rattus norvegicus; test: Hypoglycemic activity in 48 hrs-fasted rat assessed as change in blood glucose level at dose equivalent to 68 mg of free base/kg, po measured at 5 hrs relative to control; type: functional
QUANTITY_MEASURED: Activity (%)
Give your result in % as a bare value.

Sample records with Activity:
Enquiry: Can you look up the measured Activity of O=C([O-])C(F)(F)F.c1ccc(-c2c[n+]3ccccc3s2)cc1 for me?
Return: -24

Enquiry: Can you look up the measured Activity of O.[Cl-].c1ccc(-c2c[n+]3ccccc3s2)cc1 for me?
Return: -39

Enquiry: Can you look up the measured Activity of [O-][Cl+3]([O-])([O-])[O-].c1ccc(-c2c[n+]3ccccc3s2)cc1 for me?
Return: -28

Here is the next item to consider.
Enquiry: Can you look up the measured Activity of O.O=S(=O)([O-])O.c1ccc(-c2c[n+]3ccccc3s2)cc1 for me?
Return: -30
